# tgt: Mmp7 (rat)
# experimental-protocol: reporter assay of Huesken 2005; further: test concentration or dose not given here
# condition-info: siRNA
Oligonucleotides are given in HELM: sugar(base)linkage, 5' to 3'; d 2'-deoxyribose, r ribose, m 2'-O-methylribose, p phosphate. ss, as = sense and antisense strand
experimental-endpoint: normalised inhibition (eCFP-eYFP dual reporter) (%)

[[record]]
substance = "RNA1{r(G)p.r(G)p.r(U)p.r(C)p.r(U)p.r(G)p.r(G)p.r(G)p.r(U)p.r(C)p.r(A)p.r(C)p.r(U)p.r(C)p.r(U)p.r(U)p.r(C)p.r(U)p.r(G)p.d(T)p.d(T)}|RNA2{r(C)p.r(A)p.r(G)p.r(A)p.r(A)p.r(G)p.r(A)p.r(G)p.r(U)p.r(G)p.r(A)p.r(C)p.r(C)p.r(C)p.r(A)p.r(G)p.r(A)p.r(C)p.r(C)p.d(C)p.d(A)}$$$RNA1{StrandType:ss}|RNA2{StrandType:as}$"
value_unit = "%"
measurement = 73.8

[[record]]
substance = "RNA1{r(U)p.r(U)p.r(A)p.r(C)p.r(C)p.r(U)p.r(U)p.r(C)p.r(A)p.r(C)p.r(G)p.r(A)p.r(C)p.r(U)p.r(C)p.r(U)p.r(A)p.r(A)p.r(A)p.d(T)p.d(T)}|RNA2{r(U)p.r(U)p.r(U)p.r(A)p.r(G)p.r(A)p.r(G)p.r(U)p.r(C)p.r(G)p.r(U)p.r(G)p.r(A)p.r(A)p.r(G)p.r(G)p.r(U)p.r(A)p.r(A)p.d(A)p.d(A)}$$$RNA1{StrandType:ss}|RNA2{StrandType:as}$"
value_unit = "%"
measurement = 131

[[record]]
substance = "RNA1{r(U)p.r(A)p.r(A)p.r(U)p.r(G)p.r(C)p.r(C)p.r(A)p.r(A)p.r(A)p.r(C)p.r(A)p.r(G)p.r(U)p.r(C)p.r(C)p.r(U)p.r(A)p.r(A)p.d(T)p.d(T)}|RNA2{r(U)p.r(U)p.r(A)p.r(G)p.r(G)p.r(A)p.r(C)p.r(U)p.r(G)p.r(U)p.r(U)p.r(U)p.r(G)p.r(G)p.r(C)p.r(A)p.r(U)p.r(U)p.r(A)p.d(G)p.d(T)}$$$RNA1{StrandType:ss}|RNA2{StrandType:as}$"
value_unit = "%"
measurement = 105


###

# tgt: TMEM63B
# experimental-protocol: reporter assay of Huesken 2005
# condition-info: siRNA
Oligonucleotides are given in HELM: sugar(base)linkage, 5' to 3'; d 2'-deoxyribose, r ribose, m 2'-O-methylribose, p phosphate. ss, as = sense and antisense strand
experimental-endpoint: normalised inhibition (eCFP-eYFP dual reporter) (%)

[[record]]
substance = "RNA1{r(U)p.r(U)p.r(G)p.r(C)p.r(U)p.r(G)p.r(A)p.r(U)p.r(G)p.r(C)p.r(C)p.r(A)p.r(C)p.r(C)p.r(C)p.r(G)p.r(A)p.r(C)p.r(G)p.d(T)p.d(T)}|RNA2{r(C)p.r(G)p.r(U)p.r(C)p.r(G)p.r(G)p.r(G)p.r(U)p.r(G)p.r(G)p.r(C)p.r(A)p.r(U)p.r(C)p.r(A)p.r(G)p.r(C)p.r(A)p.r(A)p.d(C)p.d(T)}$$$RNA1{StrandType:ss}|RNA2{StrandType:as}$"
measurement = 39.7

[[record]]
substance = "RNA1{r(C)p.r(U)p.r(U)p.r(U)p.r(C)p.r(C)p.r(U)p.r(C)p.r(A)p.r(U)p.r(C)p.r(U)p.r(U)p.r(C)p.r(A)p.r(U)p.r(G)p.r(G)p.r(U)p.d(T)p.d(T)}|RNA2{r(A)p.r(C)p.r(C)p.r(A)p.r(U)p.r(G)p.r(A)p.r(A)p.r(G)p.r(A)p.r(U)p.r(G)p.r(A)p.r(G)p.r(G)p.r(A)p.r(A)p.r(A)p.r(G)p.d(T)p.d(G)}$$$RNA1{StrandType:ss}|RNA2{StrandType:as}$"
measurement = 72.7

[[record]]
substance = "RNA1{r(C)p.r(U)p.r(G)p.r(G)p.r(U)p.r(C)p.r(A)p.r(U)p.r(C)p.r(A)p.r(C)p.r(C)p.r(A)p.r(U)p.r(C)p.r(G)p.r(U)p.r(C)p.r(A)p.d(T)p.d(T)}|RNA2{r(U)p.r(G)p.r(A)p.r(C)p.r(G)p.r(A)p.r(U)p.r(G)p.r(G)p.r(U)p.r(G)p.r(A)p.r(U)p.r(G)p.r(A)p.r(C)p.r(C)p.r(A)p.r(G)p.d(G)p.d(A)}$$$RNA1{StrandType:ss}|RNA2{StrandType:as}$"
measurement = 67


###

The substances listed here are annotated with their normalised inhibition (eCFP-eYFP dual reporter).
# tgt: UBE2N
# experimental-protocol: reporter assay of Huesken 2005
# condition-info: siRNA
Oligonucleotides are given in HELM: sugar(base)linkage, 5' to 3'; d 2'-deoxyribose, r ribose, m 2'-O-methylribose, p phosphate. ss, as = sense and antisense strand
experimental-endpoint: normalised inhibition (eCFP-eYFP dual reporter) (%)

[[record]]
substance = "RNA1{r(A)p.r(U)p.r(G)p.r(U)p.r(G)p.r(G)p.r(U)p.r(C)p.r(A)p.r(U)p.r(U)p.r(G)p.r(C)p.r(U)p.r(G)p.r(G)p.r(C)p.r(C)p.r(C)p.d(T)p.d(T)}|RNA2{r(G)p.r(G)p.r(G)p.r(C)p.r(C)p.r(A)p.r(G)p.r(C)p.r(A)p.r(A)p.r(U)p.r(G)p.r(A)p.r(C)p.r(C)p.r(A)p.r(C)p.r(A)p.r(U)p.d(G)p.d(A)}$$$RNA1{StrandType:ss}|RNA2{StrandType:as}$"
measurement = 47.1

[[record]]
substance = "RNA1{r(U)p.r(C)p.r(C)p.r(G)p.r(C)p.r(A)p.r(C)p.r(A)p.r(G)p.r(U)p.r(U)p.r(C)p.r(U)p.r(G)p.r(C)p.r(U)p.r(A)p.r(U)p.r(C)p.d(T)p.d(T)}|RNA2{r(G)p.r(A)p.r(U)p.r(A)p.r(G)p.r(C)p.r(A)p.r(G)p.r(A)p.r(A)p.r(C)p.r(U)p.r(G)p.r(U)p.r(G)p.r(C)p.r(G)p.r(G)p.r(A)p.d(T)p.d(C)}$$$RNA1{StrandType:ss}|RNA2{StrandType:as}$"
measurement = 63.5

[[record]]
substance = "RNA1{r(U)p.r(C)p.r(A)p.r(U)p.r(G)p.r(U)p.r(G)p.r(G)p.r(U)p.r(C)p.r(A)p.r(U)p.r(U)p.r(G)p.r(C)p.r(U)p.r(G)p.r(G)p.r(C)p.d(T)p.d(T)}|RNA2{r(G)p.r(C)p.r(C)p.r(A)p.r(G)p.r(C)p.r(A)p.r(A)p.r(U)p.r(G)p.r(A)p.r(C)p.r(C)p.r(A)p.r(C)p.r(A)p.r(U)p.r(G)p.r(A)p.d(A)p.d(A)}$$$RNA1{StrandType:ss}|RNA2{StrandType:as}$"
measurement = 50.6

[[record]]
substance = "RNA1{r(U)p.r(A)p.r(G)p.r(C)p.r(G)p.r(G)p.r(A)p.r(G)p.r(C)p.r(A)p.r(G)p.r(U)p.r(G)p.r(G)p.r(A)p.r(A)p.r(G)p.r(A)p.r(C)p.d(T)p.d(T)}|RNA2{r(G)p.r(U)p.r(C)p.r(U)p.r(U)p.r(C)p.r(C)p.r(A)p.r(C)p.r(U)p.r(G)p.r(C)p.r(U)p.r(C)p.r(C)p.r(G)p.r(C)p.r(U)p.r(A)p.d(C)p.d(A)}$$$RNA1{StrandType:ss}|RNA2{StrandType:as}$"
measurement = 40.2


###

The substances listed here are annotated with their normalised inhibition (eCFP-eYFP dual reporter).
# tgt: UBE2D3
# experimental-protocol: reporter assay of Huesken 2005
# condition-info: siRNA
Oligonucleotides are given in HELM: sugar(base)linkage, 5' to 3'; d 2'-deoxyribose, r ribose, m 2'-O-methylribose, p phosphate. ss, as = sense and antisense strand
experimental-endpoint: normalised inhibition (eCFP-eYFP dual reporter) (%)

[[record]]
substance = "RNA1{r(U)p.r(G)p.r(A)p.r(C)p.r(A)p.r(A)p.r(U)p.r(U)p.r(C)p.r(A)p.r(U)p.r(U)p.r(U)p.r(U)p.r(C)p.r(C)p.r(U)p.r(A)p.r(C)p.d(T)p.d(T)}|RNA2{r(G)p.r(U)p.r(A)p.r(G)p.r(G)p.r(A)p.r(A)p.r(A)p.r(A)p.r(U)p.r(G)p.r(A)p.r(A)p.r(U)p.r(U)p.r(G)p.r(U)p.r(C)p.r(A)p.d(A)p.d(A)}$$$RNA1{StrandType:ss}|RNA2{StrandType:as}$"
tgt = "UBE2D3"
measurement = 55.4

[[record]]
substance = "RNA1{r(A)p.r(U)p.r(U)p.r(A)p.r(A)p.r(C)p.r(A)p.r(G)p.r(U)p.r(A)p.r(A)p.r(U)p.r(G)p.r(G)p.r(C)p.r(A)p.r(G)p.r(C)p.r(A)p.d(T)p.d(T)}|RNA2{r(U)p.r(G)p.r(C)p.r(U)p.r(G)p.r(C)p.r(C)p.r(A)p.r(U)p.r(U)p.r(A)p.r(C)p.r(U)p.r(G)p.r(U)p.r(U)p.r(A)p.r(A)p.r(U)p.d(A)p.d(T)}$$$RNA1{StrandType:ss}|RNA2{StrandType:as}$"
tgt = "UBE2D3"
measurement = 57.6

[[record]]
substance = "RNA1{r(U)p.r(G)p.r(C)p.r(U)p.r(U)p.r(U)p.r(A)p.r(A)p.r(C)p.r(A)p.r(A)p.r(U)p.r(U)p.r(U)p.r(C)p.r(U)p.r(A)p.r(A)p.r(A)p.d(T)p.d(T)}|RNA2{r(U)p.r(U)p.r(U)p.r(A)p.r(G)p.r(A)p.r(A)p.r(A)p.r(U)p.r(U)p.r(G)p.r(U)p.r(U)p.r(A)p.r(A)p.r(A)p.r(G)p.r(C)p.r(A)p.d(G)p.d(G)}$$$RNA1{StrandType:ss}|RNA2{StrandType:as}$"
tgt = "UBE2D3"
measurement = 92

